Test system: lungs of bleomycin-injured mice
Test: MR imaging of lung in bleomycin lung fibrosis model
Type: in vivo, mouse
Condition Summary: Naïve mice (normal lung)
# Washout T1/2 in lungs values compiled below
Answer format: numeric, min implied, no suffix.

Please review the following examples before continuing.
{"Compound": "NNCC(=O)NCCCN1CCN(CC(=O)[O-])Cc2cccc(n2)CN(CC(=O)[O-])CC1.[Mn+2] [Mn-17]", "Unit Tag": "min", "Washout T1/2 in lungs": 15.1}
{"Compound": "CN(C)C(CCC(=O)NCCCN1CCN(CC(=O)[O-])Cc2cccc(n2)CN(CC(=O)[O-])CC1)C(=O)O.[Mn+2] (stereo not shown) [Mn-18]", "Unit Tag": "min", "Washout T1/2 in lungs": 15.7}
{"Compound": "NOC(CCC(=O)NCCCN1CCN(CC(=O)[O-])Cc2cccc(n2)CN(CC(=O)[O-])CC1)C(=O)O.[Mn+2] (stereo not shown) [Mn-16]", "Unit Tag": "min", "Washout T1/2 in lungs": 17.9}

Recorded result, NNC(CCC(=O)NCCCN1CCN(CC(=O)[O-])Cc2cccc(n2)CN(CC(=O)[O-])CC1)C(=O)O.[Mn+2] (stereo not shown) [Mn-15] , Washout T1/2 in lungs: 13.7
